# key: entry, value: pIC50
Molecular target: Kdr (Homo sapiens)
Construct: Kinases are expressed as either kinase domains or full length constructs; made in house
Sequence (P35968 20-1356, species assumed): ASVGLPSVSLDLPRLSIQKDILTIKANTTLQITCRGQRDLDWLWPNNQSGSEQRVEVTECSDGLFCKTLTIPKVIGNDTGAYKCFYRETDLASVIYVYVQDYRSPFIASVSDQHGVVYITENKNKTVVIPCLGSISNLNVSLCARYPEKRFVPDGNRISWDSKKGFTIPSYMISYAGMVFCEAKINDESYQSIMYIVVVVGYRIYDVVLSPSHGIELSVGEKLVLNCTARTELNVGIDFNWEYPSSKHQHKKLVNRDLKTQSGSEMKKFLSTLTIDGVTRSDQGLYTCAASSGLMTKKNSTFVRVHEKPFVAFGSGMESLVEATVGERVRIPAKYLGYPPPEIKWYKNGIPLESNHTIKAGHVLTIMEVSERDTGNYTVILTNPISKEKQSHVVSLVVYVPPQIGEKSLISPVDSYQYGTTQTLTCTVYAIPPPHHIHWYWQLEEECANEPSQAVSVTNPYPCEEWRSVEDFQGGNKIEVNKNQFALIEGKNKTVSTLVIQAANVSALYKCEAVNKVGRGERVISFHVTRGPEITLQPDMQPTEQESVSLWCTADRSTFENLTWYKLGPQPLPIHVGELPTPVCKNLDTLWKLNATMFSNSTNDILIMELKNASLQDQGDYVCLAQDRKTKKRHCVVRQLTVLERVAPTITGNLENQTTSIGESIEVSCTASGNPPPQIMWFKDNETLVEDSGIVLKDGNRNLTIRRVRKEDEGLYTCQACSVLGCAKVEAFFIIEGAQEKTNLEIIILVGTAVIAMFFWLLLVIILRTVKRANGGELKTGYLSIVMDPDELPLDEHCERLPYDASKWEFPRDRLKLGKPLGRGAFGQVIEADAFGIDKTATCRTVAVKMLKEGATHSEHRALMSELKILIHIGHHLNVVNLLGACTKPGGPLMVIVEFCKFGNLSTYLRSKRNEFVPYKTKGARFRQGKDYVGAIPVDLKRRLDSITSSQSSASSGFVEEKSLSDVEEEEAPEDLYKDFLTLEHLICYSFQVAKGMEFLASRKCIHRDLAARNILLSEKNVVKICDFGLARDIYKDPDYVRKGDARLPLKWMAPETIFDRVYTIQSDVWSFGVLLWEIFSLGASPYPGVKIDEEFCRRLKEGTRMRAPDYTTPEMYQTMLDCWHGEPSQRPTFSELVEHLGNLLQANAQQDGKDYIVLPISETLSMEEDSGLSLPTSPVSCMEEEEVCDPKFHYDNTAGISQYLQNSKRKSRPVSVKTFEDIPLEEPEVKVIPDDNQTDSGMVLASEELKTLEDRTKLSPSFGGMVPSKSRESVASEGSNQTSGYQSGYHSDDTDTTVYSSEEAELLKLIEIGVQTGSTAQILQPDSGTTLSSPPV
Test: Kinase inhibition assay (33P transfer), Kdr
Format: biochemical
Details: Table 3; read-out: KDR-1
Description: The inhibitor compounds described herein are screened in the following manner. […] Kinases are expressed as either kinase domains or full length constructs fused to glutathione S-transferase (GST) or polyHistidine tagged fusion proteins in either E. colior Baculovirus-High Five expression systems. […]
pIC50: −log10 of the molar value.

Examples from the recorded data:
Compound string	pIC50
COc1cc(Nc2ncnc(N(Cc3ccccc3)c3nc4ccccc4[nH]3)n2)cc(OC)c1OC	5.30 to 6.08
COc1cc(Nc2ncnc(-n3c(=O)oc4ccccc43)n2)cc(OC)c1OC	5.22 to 5.99
COc1cc(OC)cc(-c2nnc(Nc3ncnc(Nc4cc(OC)c(OC)c(OC)c4)n3)[nH]2)c1	< 5.03
COc1ncnc(Nc2cc(OC)c(OC)c(OC)c2)n1	< 4.81

Consider the additional compound presented here.
// recorded pIC50 for `O=c1[nH]c2ccccc2n1-c1ncnc(Nc2cccc(-c3cnco3)c2)n1` : > 5.97
